The reported numbers originate from patent US20250296992A1.

Each entry below lists one item and its recorded pEC50 value.
# targetUnderTest: T1, cynomolgus monkey SLITRK6 extracellular domain linked to his tag (cynomolgus monkey, UniProt G7PVK4 27-608)
# T1 construct: extracellular domain; also called cynoSLITRK6; Cyno SLITRK6; not shown: his tag
# assayComment: ELISA, coated antigen
pEC50: −log10 of the molar value.

binder | pEC50
hu14G1-03 (antibody, V domains shown) VH: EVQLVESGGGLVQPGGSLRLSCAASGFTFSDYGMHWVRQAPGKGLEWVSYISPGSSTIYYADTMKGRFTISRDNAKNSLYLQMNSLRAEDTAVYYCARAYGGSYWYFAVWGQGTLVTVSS VL: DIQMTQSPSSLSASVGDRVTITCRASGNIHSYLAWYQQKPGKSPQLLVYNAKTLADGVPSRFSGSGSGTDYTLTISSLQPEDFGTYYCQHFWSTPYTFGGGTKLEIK | 10.40
Sirtratumab (antibody, V domains shown, Prior-art benchmark antibody; also called Sirtratuzumab) VH: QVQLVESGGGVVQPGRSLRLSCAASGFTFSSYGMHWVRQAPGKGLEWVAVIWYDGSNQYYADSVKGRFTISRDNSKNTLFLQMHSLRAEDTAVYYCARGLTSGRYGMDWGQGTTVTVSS VL: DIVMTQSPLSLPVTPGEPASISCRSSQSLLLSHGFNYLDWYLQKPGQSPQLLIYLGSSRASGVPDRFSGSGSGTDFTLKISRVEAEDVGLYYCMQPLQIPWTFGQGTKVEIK | 10.22
phA290 (antibody, V domains shown, From phage display, then full-length construction; Only the variable regions are tied to the name) VH: QVQLVQSGAEVKKPGASVKVSCKASGYTFTSYYMHWVRQAPGQGLEWMGIINPSGGSTSYAQKFQGRVTMTRDTSTSTVYMELSSLRSEDTAVYYCARGFTRYFDYWGQGTLVTVSA VL: EIVMTQSPGTLSLSPGERATLSCRASQSVSKYLAWYQQRPGQAPRLLIYDASNRATGIPARFSGSGSGTDFTLTVSSLEPEDFAVYYCQQRYNWPLTFGGGTTVEIK | 10.22
phA108 (antibody, V domains shown, From phage display, then full-length construction; Only the variable regions are tied to the name) VH: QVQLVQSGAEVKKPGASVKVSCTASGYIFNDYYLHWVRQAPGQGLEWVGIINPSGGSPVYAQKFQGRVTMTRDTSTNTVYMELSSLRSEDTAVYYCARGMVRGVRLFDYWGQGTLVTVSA VL: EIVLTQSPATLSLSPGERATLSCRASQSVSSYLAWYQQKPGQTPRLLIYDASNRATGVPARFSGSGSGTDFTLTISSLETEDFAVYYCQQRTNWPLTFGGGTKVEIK | 10.22
hu1H2-13 (antibody, V domains shown) VH: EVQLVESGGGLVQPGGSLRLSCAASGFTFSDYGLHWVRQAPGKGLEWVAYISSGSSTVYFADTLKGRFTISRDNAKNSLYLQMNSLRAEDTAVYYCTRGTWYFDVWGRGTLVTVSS VL: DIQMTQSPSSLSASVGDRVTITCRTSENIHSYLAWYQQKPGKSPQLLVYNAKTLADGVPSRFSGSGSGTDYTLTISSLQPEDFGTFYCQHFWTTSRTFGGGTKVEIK | 10.30
hu1H2-03 (antibody, V domains shown, see m20) VH: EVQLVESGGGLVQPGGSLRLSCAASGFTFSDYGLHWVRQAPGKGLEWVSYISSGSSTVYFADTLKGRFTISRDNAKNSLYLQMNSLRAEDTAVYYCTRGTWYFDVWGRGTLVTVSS VL: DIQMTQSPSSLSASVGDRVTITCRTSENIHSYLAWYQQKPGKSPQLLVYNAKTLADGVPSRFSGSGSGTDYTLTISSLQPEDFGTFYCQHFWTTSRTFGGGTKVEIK | 10.30
